Some compounds, each annotated with its measured viability at 10 µM.
Test system: HT-29
Assay: Cytotoxicity against human HT-29 cells assessed as survival index at 10 uM after 72 hrs by FMCA method
Format: functional
Conditions: HT-29, 72 h, read-out: Survival
The answer is to be given in %; state only the numeric part.

As a guide, the following entries are already answered.
* CO[C@H]1[C@H](O)[C@H](O[C@H]2CC[C@@]3(C)[C@H](CC[C@@H]4[C@@H]3CC[C@]3(C)[C@@H](C5=CC(=O)OC5)CC[C@]43O)C2)O[C@@H](C)[C@@H]1O [NERIIFOLIN] | 19
* CC(=O)O[C@H]1CC[C@@]2(C)[C@H](CC[C@@H]3[C@@H]2CC[C@]2(C)[C@@H](C4=CC(=O)OC4)[C@@H](OC(C)=O)C[C@]32O)C1 [GITOXIGENIN DIACETATE] | 40
* C[C@@H]1O[C@@H](O[C@H]2C[C@@H](O)[C@]3(CO)[C@H]4[C@H](O)C[C@]5(C)[C@@H](C6=CC(=O)OC6)CC[C@]5(O)[C@@H]4CC[C@]3(O)C2)[C@H](O)[C@H](O)[C@H]1O [OUABAIN] | 22
* CC(=O)O[C@H]1C[C@H](O[C@H]2[C@@H](O)C[C@H](O[C@H]3[C@@H](O)C[C@H](O[C@H]4CC[C@@]5(C)[C@H](CC[C@@H]6[C@@H]5C[C@@H](O)[C@]5(C)[C@@H](C7=CC(=O)OC7)CC[C@]65O)C4)O[C@@H]3C)O[C@@H]2C)O[C@H](C)[C@H]1O[C@@H]1O[C@H](CO)[C@@H](O)[C@H](O)[C@H]1O [LANATOSIDE C] | 40
* C[C@@H]1O[C@@H](O[C@H]2CC[C@]3(C=O)[C@H]4CC[C@]5(C)[C@@H](C6=CC(=O)OC6)CC[C@]5(O)[C@@H]4CC[C@]3(O)C2)[C@H](O)[C@H](O)[C@H]1O [CONVALLATOXIN] | 20

Sample C[C@H]1O[C@@H](O[C@H]2[C@@H](O)C[C@H](O[C@H]3[C@@H](O)C[C@H](O[C@H]4CC[C@@]5(C)[C@H](CC[C@@H]6[C@@H]5CC[C@]5(C)[C@@H](C7=CC(=O)OC7)CC[C@]65O)C4)O[C@@H]3C)O[C@@H]2C)C[C@H](O)[C@@H]1O [DIGITOXIN] ; viability at 10 µM observed: 28

The value of viability at 10 µM measured for the compound CO[C@H]1C[C@H](O[C@H]2CC[C@]3(C=O)[C@H]4CC[C@]5(C)[C@@H](C6=CC(=O)OC6)CC[C@]5(O)[C@@H]4CC[C@]3(O)C2)O[C@H](C)[C@H]1O [CYMARIN] turned out to be 26

Field viability at 10 µM (entry C[C@H]1O[C@@H](O[C@H]2[C@@H](O)C[C@H](O[C@H]3[C@@H](O)C[C@H](O[C@H]4CC[C@@]5(C)[C@H](CC[C@@H]6[C@@H]5C[C@@H](O)[C@]5(C)[C@@H](C7=CC(=O)OC7)CC[C@]65O)C4)O[C@@H]3C)O[C@@H]2C)C[C@H](O)[C@@H]1O [DIGOXIN] ) reads 24

###

Test system: HT-29
Test: Cytotoxicity against human HT-29 cells after 72 hrs by FMCA method relative to digoxin
Format: functional
MEASUREMENT_TYPE: Activity
# output: bare number, no unit

Briefly, Activity measured for C[C@H]1O[C@@H](O[C@H]2[C@@H](O)C[C@H](O[C@H]3[C@@H](O)C[C@H](O[C@H]4CC[C@@]5(C)[C@H](CC[C@@H]6[C@@H]5C[C@@H](O)[C@]5(C)[C@@H](C7=CC(=O)OC7)CC[C@]65O)C4)O[C@@H]3C)O[C@@H]2C)C[C@H](O)[C@@H]1O [DIGOXIN] : 1
